test system: K-562 leukemia; assay: NCI-60 one-dose screen, 48 h (100 = growth as untreated, 0 = no growth, -100 = all killed); settings: 10 µM unless noted
Compounds without any hit were thinned out: in the full panel of roughly 83,000, 20% have a hit.
READOUT_NAME: growth (%)
Provide only the numeric value, understood in %.

[[record]]
mol = "CC1(C)NCCC[C@]2(C)[C@H]3CC[C@@H]4[C@H]5[C@H](C(=O)/C=C/c6ccccn6)CC[C@]5(CO)CC[C@@]4(C)[C@]3(C)CC[C@@H]12"
target_under_test = "K-562 leukemia"
u = "%"
endpoint_value = -2.17

[[record]]
mol = "COC(c1ccccc1)(c1ccccc1)c1ccccc1"
target_under_test = "K-562 leukemia"
u = "%"
endpoint_value = 109

[[record]]
mol = "COc1ccc(-c2cc(=O)oc3ccc(Cl)cc23)cc1F"
target_under_test = "K-562 leukemia"
u = "%"
endpoint_value = 7.21

[[record]]
mol = "C/C(=N\\Nc1ccc2ccccc2n1)c1ccccn1"
target_under_test = "K-562 leukemia"
u = "%"
endpoint_value = 2.37


Let us examine a further case.
In: Which growth is reported with K-562 leukemia for this entry: N#Cc1c(-c2ccc(O)cc2)c2c(N)nn(-c3ccccc3)c2[nH]c1=O ?
Out: 107
